B1: Osa-1-4 twister ribozyme (parent)
chain: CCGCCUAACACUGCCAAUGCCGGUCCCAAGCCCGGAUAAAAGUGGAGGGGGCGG

Variants of: B1
Measurement protocol: self-cleavage, relative activity (ratio to wild type); higher = more cleavage; co-transcriptional
So basically, the class depends on measured self-cleavage, and the ranges are lower bin = under 0.05, middle bin = from 0.05 up to 0.1, upper bin = 0.1 and over

Sequence chain: CCGCCUGACACUGCCAAUGCCGGCCCCAAGCCCGGAUAAAAGUGGAGGGGGCGG [A7G U24C]
Cat: middle bin
//
Sequence chain: CCGCCUAACGUUGCCAAUGCCGGUCCCAAGCCCGGAUAAAAGUGGAGGGGGCGG [A10G C11U]
Cat: upper bin
//
Sequence chain: CCGCCUAACACUGCCAAUUCCUGUCCCAAGCCCGGAUAAAAGUGGAGGGGGCGG [G19U G22U]
Cat: upper bin
//
Sequence chain: CCGCCUAACACUGCCAAUGCGGGUCCCAAGCCCGGACAAAAGUGGAGGGGGCGG [C21G U37C]
Cat: middle bin
//
Sequence chain: CCGCCUAACACUGCCAAUGCCGGCCCCAAGCCCGGAUAAAAGUGGAGGUGGCGG [G49U U24C]
Cat: lower bin
//
Sequence chain: CCGCCUAACACCGCCAAUGCCGGUCCCAAGCCCGGAUAACAGUGGAGGGGGCGG [A40C U12C]
Cat: middle bin
//
Sequence chain: CCGCCUAACACUGCCAAUGCCGGUCCUAAGCCCGGAUAAAAGUGGAGGUGGCGG [C27U G49U]
Cat: lower bin
//
Sequence chain: CCGCCUAACACUGCCAAUGCCGGUCCCCAGCCCGGAGAAAAGUGGAGGGGGCGG [A28C U37G]
Cat: upper bin
//
Sequence chain: CCGCCUAACACUGCCAAUGCCGGUCCCAAGCCCGGAUAAAAGUGGAAGCGGCGG [G47A G49C]
Cat: lower bin
//
Sequence chain: CCGCCUAACACUGCCCAUGCCGGUCCCAAGCCCGGAUAAAAGUGGAGGGGGCAG [A16C G53A]
Cat: upper bin
//
Sequence chain: CCGCCUAACACUGCUAAUGCCGGUCCGAAGCCCGGAUAAAAGUGGAGGGGGCGG [C15U C27G]
Cat: middle bin
//
Sequence chain: CCGCCUAACACACCCAAUGCCGGUCCCAAGCCCGGAUAAAAGUGGAGGGGGCGG [G13C U12A]
Cat: lower bin
//
Sequence chain: CCGCCUAACACUGCCAAUGCUGGUCCCUAGCCCGGAUAAAAGUGGAGGGGGCGG [A28U C21U]
Cat: upper bin
//
Sequence chain: CCGCCUAACACUGCCAAUGCCGGUCCCAUGCCCGGAUAACAGUGGAGGGGGCGG [A29U A40C]
Cat: lower bin
//
Sequence chain: CCGCCUAACAGUGCCCAUGCCGGUCCCAAGCCCGGAUAAAAGUGGAGGGGGCGG [A16C C11G]
Cat: upper bin
//
Sequence chain: CCGCCUAAGACUGCCAAUGCCUGUCCCAAGCCCGGAUAAAAGUGGAGGGGGCGG [C9G G22U]
Cat: upper bin
//
Sequence chain: CCGCCUAACACUCCCAAUGCCGGUCCCGAGCCCGGAUAAAAGUGGAGGGGGCGG [A28G G13C]
Cat: lower bin
//
Sequence chain: CCGCCUAAGACUGCCCAUGCCGGUCCCAAGCCCGGAUAAAAGUGGAGGGGGCGG [A16C C9G]
Cat: upper bin
//
Sequence chain: CCGCCUAACACUCCCAAUGCCGGUCCCAAGCCCGGAUAAAAGUGGAGGGGGUGG [C52U G13C]
Cat: lower bin
